Attribution: ChEMBL document CHEMBL4020847

Target: DCN1-like protein 1 (Homo sapiens, UniProt Q96GG9)
Sequence (Q96GG9 whole entry): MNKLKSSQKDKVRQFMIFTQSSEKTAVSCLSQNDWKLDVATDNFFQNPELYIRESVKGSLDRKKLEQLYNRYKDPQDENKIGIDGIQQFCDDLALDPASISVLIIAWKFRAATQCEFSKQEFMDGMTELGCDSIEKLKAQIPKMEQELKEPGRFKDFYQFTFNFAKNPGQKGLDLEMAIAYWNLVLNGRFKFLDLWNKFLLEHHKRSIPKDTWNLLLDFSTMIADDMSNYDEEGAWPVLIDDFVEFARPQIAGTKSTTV
Property name: IC50

Here's what some known entries look like.
[[record]]
molecule = "Cn1cncc1CN1CCC(N(Cc2ccccc2)C(=O)Nc2cc(F)cc(C(F)(F)F)c2)CC1"
recorded_value = "> 24 µM"

[[record]]
molecule = "O=C(Nc1cc(F)cc(C(F)(F)F)c1)N(Cc1ccccc1)C1CCN(Cc2nc3ccccc3s2)CC1"
recorded_value = "> 25 µM"

[[record]]
molecule = "CCCC(C)N1CCC(N(Cc2ccccc2)C(=O)Nc2ccc3ncccc3c2)CC1 (stereo not given)"
recorded_value = "> 20 µM"

[[record]]
molecule = "O=C(Nc1cc(F)cc(C(F)(F)F)c1)N(Cc1ccccc1)C1CCN(Cc2ccc(Cc3ccccc3)cc2)CC1"
recorded_value = "> 22 µM"


Alright, here's another molecule for you.
State its IC50 for this molecule: "O=C(Nc1cc(F)cc(C(F)(F)F)c1)N(Cc1ccccc1)C1CCN(Cc2ccncc2)CC1"
> 28 µM
